Source: paper PMC2756588

- target_or_test_system: T1, Pex13, P80667
- T1 sequence (P80667 295-386, looked up): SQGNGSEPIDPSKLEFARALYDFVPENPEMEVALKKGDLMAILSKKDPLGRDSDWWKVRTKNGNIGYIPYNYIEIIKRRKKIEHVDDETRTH
- protocol_text: SPOT array
- applied_conditions: median of control spots 1341
value_type: SPOT intensity

Data request: Need SPOT intensity of `VPKEPAPAPPPEPDM` , thanks.
Data returned: 4

Data request: Need SPOT intensity of `ALRRRLPVTRSKINW` , thanks.
Data returned: 4

Data request: Need SPOT intensity of `VLRFLGFPLPIFEKG` , thanks.
Data returned: 4
